All values here come from patent US20210380535A1.

# method summary: Pharmacokinetics study of (+)/(−) epicatechin and their trigonelline (1:1) co-crystals, oral (Example 3)
# Type: in vivo
# measurement parameters: rat, 10 mg/kg, male SD rats, 10 mpk equivalent of parent drug, vehicle CMC and Tween 80, plasma
observable: Cmax
A bare number is not enough; add the unit after it.

{"molecule": "Oc1cc(O)c2c(c1)O[C@@H](c1ccc(O)c(O)c1)[C@@H](O)C2 [Compound 108, (+) epicatechin]", "val": "333 nM"}

Item Oc1cc(O)c2c(c1)O[C@H](c1ccc(O)c(O)c1)[C@H](O)C2 [Compound 107, (−) epicatechin] has what recorded Cmax?
386 nM

----------
# method summary: Pharmacokinetics study of (+) epicatechin (SPR590) and its trigonelline (1:1) co-crystal (SPR515), oral (Example 4)
# Assay type: in vivo
# measurement parameters: rat, plasma; time point 0.5 h; male SD rats, PO 10 mpk (SPR515: equivalent to 6.25 mpk epicatechin), CMC and Tween 80; read-out: Plasma level
observable: concentration at 0.5 h
Reply with a number, then the unit it belongs to.

Can you share its concentration at 0.5 h? I mean this compound: Oc1cc(O)c2c(c1)O[C@@H](c1ccc(O)c(O)c1)[C@@H](O)C2 [Compound 108, (+) epicatechin]
338 nM

----------
# method summary: Pharmacokinetics study of (+) epicatechin (SPR590) and its trigonelline (1:1) co-crystal (SPR515), oral (Example 4)
# Format: in vivo
# measurement parameters: rat, plasma; time point 1 h; male SD rats, PO 10 mpk (SPR515: equivalent to 6.25 mpk epicatechin), CMC and Tween 80; read-out: Plasma level
observable: concentration at 1 h (nM)
Give the number; nM is assumed, so skip it.

Recorded concentration at 1 h of Oc1cc(O)c2c(c1)O[C@@H](c1ccc(O)c(O)c1)[C@@H](O)C2 [Compound 108, (+) epicatechin] , please.
262

----------
# method summary: Pharmacokinetics study of (+) epicatechin (SPR590) and its trigonelline (1:1) co-crystal (SPR515), oral (Example 4)
# Type: in vivo
# measurement parameters: rat, plasma; time point 8 h; male SD rats, PO 10 mpk (SPR515: equivalent to 6.25 mpk epicatechin), CMC and Tween 80; read-out: Plasma level
observable: concentration at 8 h (nM)
Field: numeric (nM). Do not append units.

Can you look up the measured concentration at 8 h of Oc1cc(O)c2c(c1)O[C@@H](c1ccc(O)c(O)c1)[C@@H](O)C2 [Compound 108, (+) epicatechin] for me?
0

----------
# method summary: Pharmacokinetics study of (+) epicatechin (SPR590) and its trigonelline (1:1) co-crystal (SPR515), oral (Example 4)
# Format: in vivo
# measurement parameters: rat, plasma; time point 0.16 h; male SD rats, PO 10 mpk (SPR515: equivalent to 6.25 mpk epicatechin), CMC and Tween 80; read-out: Plasma level
observable: concentration at 0.16 h (µM)
Your answer should be a plain number; it is taken to be in µM.

May I ask what concentration at 0.16 h has been recorded for Oc1cc(O)c2c(c1)O[C@@H](c1ccc(O)c(O)c1)[C@@H](O)C2 [Compound 108, (+) epicatechin] ?
0.236

----------
# measurement parameters: average; male SD rats, PO, 14 mpk of Compound 109 (equivalent to 10 mpk epicatechin), vehicle 0.5% CMC
observable: Cmax (nM)
Quick reminder: number only, in nM, skip the unit.

Param item = O=C(O)[C@H]1CCCN1.Oc1cc(O)c2c(c1)O[C@@H](c1ccc(O)c(O)c1)[C@@H](O)C2 [Compound 109] ; retrieve measured Cmax.
778

----------
# method summary: Pharmacokinetics study of (+) epicatechin (SPR590) and its trigonelline (1:1) co-crystal (SPR515), oral (Example 4)
# Format: in vivo
# measurement parameters: rat, plasma; time point 4 h; male SD rats, PO 10 mpk (SPR515: equivalent to 6.25 mpk epicatechin), CMC and Tween 80; read-out: Plasma level
observable: concentration at 4 h (nM)
Supply the numeric figure in nM, leaving out any unit text.

// returns reported concentration at 4 h for input Oc1cc(O)c2c(c1)O[C@@H](c1ccc(O)c(O)c1)[C@@H](O)C2 [Compound 108, (+) epicatechin]
24.1

----------
# method summary: Pharmacokinetics study of (+)/(−) epicatechin and their trigonelline (1:1) co-crystals, oral (Example 3)
# Format: in vivo
# measurement parameters: rat, 10 mg/kg, male SD rats, 10 mpk equivalent of parent drug, vehicle CMC and Tween 80, plasma
Parameter Tmax: see the listing below.
Please respond with the number in min and leave the unit unwritten.

{"compound": "Oc1cc(O)c2c(c1)O[C@H](c1ccc(O)c(O)c1)[C@H](O)C2 [Compound 107, (−) epicatechin]", "Tmax, min": 18}

Turning now to a further record.
For the compound Oc1cc(O)c2c(c1)O[C@@H](c1ccc(O)c(O)c1)[C@@H](O)C2 [Compound 108, (+) epicatechin] , what Tmax is on record?
60
